- target: T1, monkey GPC3-His protein (monkey)
- T1 construct: Bought recombinant protein; also called monkey GPC3 protein
- test_method_notes: ELISA, monkey GPC3-His coated;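 further: Plate-coated antigen at 1 µg/mL, antibody binding 2 h at 37 °C, detected with HRP-labeled secondary antibody and TMB, absorbance at 450 nm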
Listed below: OD450 at 0.0001 nM values for each entry.

>  <binder>
F1.92.17 (antibody, human IgG1, kappa, V domains shown, Human-murine chimeric antibody) VH: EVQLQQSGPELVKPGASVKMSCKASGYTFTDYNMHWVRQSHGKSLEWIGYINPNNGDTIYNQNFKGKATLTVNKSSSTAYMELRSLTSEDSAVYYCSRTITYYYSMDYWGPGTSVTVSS VL: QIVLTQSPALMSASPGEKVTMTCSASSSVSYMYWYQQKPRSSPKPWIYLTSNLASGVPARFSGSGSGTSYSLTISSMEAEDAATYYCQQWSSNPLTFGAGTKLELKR

>  <readout_unit>
OD450

>  <OD450 at 0.0001 nM>
0.05

$$$$
>  <binder>
F1.41.17 (antibody, human IgG1, kappa, V domains shown, Human-murine chimeric antibody) VH: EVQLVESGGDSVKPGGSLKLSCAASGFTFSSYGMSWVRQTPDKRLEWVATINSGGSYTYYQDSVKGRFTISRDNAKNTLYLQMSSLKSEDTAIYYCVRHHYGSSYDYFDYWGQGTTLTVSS VL: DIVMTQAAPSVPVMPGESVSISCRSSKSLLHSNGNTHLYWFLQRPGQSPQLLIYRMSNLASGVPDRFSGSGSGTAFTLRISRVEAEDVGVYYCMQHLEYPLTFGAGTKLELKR

>  <readout_unit>
OD450

>  <OD450 at 0.0001 nM>
0.05

$$$$
